Tested on: canine distemper virus (CDV)
Type: cell-based
Conditions: read-out: IC50 against CDV
assay.readout: IC50 (µM)
Note: unit µM is implicit; provide only the numeric part.

Provide the documented IC50 with canine distemper virus (CDV) as the system for Cn1nc(C(F)(F)F)cc1C(=O)Nc1ccc(S(=O)(=O)N2CCCC2)cc1 28

###

So I've got CC50 readings for cells, take a look.
Report only the number, with the unit µM understood.

{"columns": ["compound.string", "assay.readout", "reported"],
 "data": [
  ["Cc1ccc2nsnc2c1S(=O)(=O)Nc1ccc(Cl)cc1", "CC50", 100]
]}

Now consider a different molecule.
I would be grateful if you could share the reported CC50 for O=C(NC(=O)N(c1ccc(Cl)cc1)S(=O)(=O)c1ccccc1)Nc1ccccc1Cl . 120
